Form field: koff (one value per entry).
Test system: Biotinylated recombinant human CD3εδ (Acro Biosystems, CDD-H82W6) (human) (UniProt P07766)
Sequence (P07766 23-126, stated change not applied, chain 1 of 2): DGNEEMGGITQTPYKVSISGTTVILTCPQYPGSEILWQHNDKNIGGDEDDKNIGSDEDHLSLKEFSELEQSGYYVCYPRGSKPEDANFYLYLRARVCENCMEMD
Sequence (P04234 22-105, stated change not applied, chain 2 of 2, further chain): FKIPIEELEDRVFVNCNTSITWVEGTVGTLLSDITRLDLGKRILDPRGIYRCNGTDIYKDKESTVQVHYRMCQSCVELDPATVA
Test protocol: Octet BLI, biotinylated CD3εδ on streptavidin sensors, 1:1 model
Record the value in s⁻¹, omitting the unit from your answer.

Examples with answers:
Data request: # get_value(readout='koff', item= EGFR-CD3 DuetMab with anti-CD3 variant AZ Vκ 29 + AZ VH R79 (bispecific antibody, part only; not given: anti-EGFR arm, constant regions, V domains shown, not shown: another chain or arm of the molecule; a dimerising Fc or GST; small tags and cut ends) VH: EVQLVESGGALVKPGGSLRLSCAASGFTFTRAWMHWVRQAPGKQLEWVAQIKDRSQTYATYYAESVKGRFTISRDDSKNTLYLQMNSLKTEDTAVYYCRGVYYAVTPFDYWGQGTLVTVSS VL: DIVMTQSPLSLPVTPGEPASISCRSSQSLVHNTGNTYLSWYLQKPGQSPQSLIYKVSNRASGVPDRFSGSGSGTDFTLKISRVEAEDVGVYYCGQGTQFPFTFGSGTKVEIK )
Data returned: 0.0487

Data request: What measured koff goes with EGFR-CD3 DuetMab with anti-CD3 variant AZ Vκ 17 + AZ VH R79 (bispecific antibody, part only; not given: anti-EGFR arm, constant regions, V domains shown, not shown: another chain or arm of the molecule; a dimerising Fc or GST; small tags and cut ends) VH: EVQLVESGGALVKPGGSLRLSCAASGFTFTRAWMHWVRQAPGKQLEWVAQIKDRSQTYATYYAESVKGRFTISRDDSKNTLYLQMNSLKTEDTAVYYCRGVYYAVTPFDYWGQGTLVTVSS VL: DIVMTQSPLSLPVTPGEPASISCRSSQSLVHNTGNTYLSWYLQKPGQSPQSLIYKVSNRASGVPDRFSGSGSGTDFTLKISRVEAEDVGVYYCGQGTQAPFTFGSGTKVEIK ?
Data returned: 0.018

Others:
Data request: Look up koff for this binder: EGFR-CD3 DuetMab with anti-CD3 variant AZ Vκ 29 + AZ VH R75 (bispecific antibody, part only; not given: anti-EGFR arm, constant regions, V domains shown, not shown: another chain or arm of the molecule; a dimerising Fc or GST; small tags and cut ends) VH: EVQLVESGGALVKPGGSLRLSCAASGFTFTRAWMHWVRQAPGKQLEWVAQIKDRSQTYATYYAESVKGRFTISRDDSKNTLYLQMNSLKTEDTAVYYCRGVYYANAPFDYWGQGTLVTVSS VL: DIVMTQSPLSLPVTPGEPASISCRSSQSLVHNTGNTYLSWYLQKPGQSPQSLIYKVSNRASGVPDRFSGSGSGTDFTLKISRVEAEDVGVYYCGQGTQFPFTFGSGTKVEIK
Data returned: 0.0119
